Measured on: TDO2 (Homo sapiens)
Construct: decreased levels of NFK in SW48 cells (high TDO expressing cells)
Assay notes: TDO2 cell assay (NFK GreenScreen, SW48 cells)
Assay type: cell-based
Test parameters: SW48 cells (high TDO expressing), 200 uM tryptophan, 24 hours; Table 3; read-out: TDO2 Cell Fluor EC50
Assay readout: pEC50
In textbook form, pEC50 equals minus log to base ten of the concentration in mol/L.

Notebook: O[C@@H]1CCC[C@@H]1[C@@H]1c2ccccc2-c2cncn21 [Example 02a] , pEC50 read as 4.92

Notebook: OC1CC(CF)(CF)C1C1c2ccccc2-c2cncn21 (single isomer, unassigned) [Example 150f] , pEC50 read as 4.96

Notebook: OC1CCOCC1C1c2c(Cl)cccc2-c2cncn21 (single isomer, unassigned) [Example 69c] , pEC50 read as 4.96

---

Measured on: TDO2 (Homo sapiens)
Construct: decreased levels of NFK in SW48 cells (high TDO expressing cells)
Assay notes: TDO2 cell assay (NFK GreenScreen, SW48 cells)
Assay type: cell-based
Test parameters: SW48 cells (high TDO expressing), 200 uM tryptophan, 24 hours; Table 3; read-out: TDO2 Cell Fluor EC50
pEC50: −log10 of the molar value.
For each entry below, report its pEC50 value.

Notebook: NS(=O)(=O)N1CC[C@@H]([C@H]2c3ccccc3-c3cncn32)[C@H](O)C1 [Example 39a] , pEC50 read as < 4.60

Notebook: OC1COCCC1C1c2cccc(F)c2-c2cncn21 (single isomer, unassigned) [Example 99a] , pEC50 read as < 4.60

Notebook: OC1COCC1C1c2ccccc2-c2cncn21 (single isomer, unassigned) [Example 26d] , pEC50 read as < 4.60

---

For each entry below, report its log10(EC50) value.
Measured on: TDO2 (Homo sapiens, UniProt P48775)
Construct: decreased levels of NFK in SW48 cells (high TDO expressing cells)
Sequence (P48775 whole entry): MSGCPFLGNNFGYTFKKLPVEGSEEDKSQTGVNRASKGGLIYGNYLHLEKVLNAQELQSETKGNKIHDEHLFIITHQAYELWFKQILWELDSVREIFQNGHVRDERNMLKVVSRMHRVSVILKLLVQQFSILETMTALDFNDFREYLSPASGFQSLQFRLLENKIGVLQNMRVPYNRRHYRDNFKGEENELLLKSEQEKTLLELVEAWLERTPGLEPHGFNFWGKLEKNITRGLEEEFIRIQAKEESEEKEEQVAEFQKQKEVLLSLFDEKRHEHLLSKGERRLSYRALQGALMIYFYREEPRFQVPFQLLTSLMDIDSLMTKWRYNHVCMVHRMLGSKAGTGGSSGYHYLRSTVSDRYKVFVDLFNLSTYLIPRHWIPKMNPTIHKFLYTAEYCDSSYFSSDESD
Assay notes: TDO2 cell assay (NFK GreenScreen, SW48 cells)
Assay type: cell-based
Test parameters: SW48 cells (high TDO expressing), 200 uM tryptophan, 24 hours; Table 3; read-out: TDO2 Cell Fluor EC50
Heads up, the numbers here are log10 of EC50 in nM units.

Notebook: OC1c2cnccc2CCC1C1c2ccccc2-c2cncn21 (single isomer, unassigned) [Example 04e] , log10(EC50) read as 1.69

Notebook: O[C@@H]1c2c(F)cnn2CC[C@@H]1[C@@H]1c2ccccc2-c2cncn21 [Example 151a] , log10(EC50) read as 2.72

Notebook: O[C@@H]1c2cnccc2CC[C@H]1[C@H]1c2ccccc2-c2cncn21 (single isomer, unassigned) [Example 04h] , log10(EC50) read as 2.11

Notebook: O[C@H]1c2cnccc2CC[C@@H]1[C@@H]1c2ccccc2-c2cncn21 (single isomer, unassigned) [Example 04f] , log10(EC50) read as 3.36

Notebook: OC1CCOCC1C1c2cccc(F)c2-c2cncn21 (single isomer, unassigned) [Example 170d] , log10(EC50) read as 4.11

---

For each entry below, report its pEC50 value.
Measured on: TDO2 (Homo sapiens, UniProt P48775)
Construct: decreased levels of NFK in SW48 cells (high TDO expressing cells)
Assay notes: TDO2 cell assay (NFK GreenScreen, SW48 cells)
Format: cell-based
Test parameters: SW48 cells (high TDO expressing), 200 uM tryptophan, 24 hours; Table 3; read-out: TDO2 Cell Fluor EC50
In textbook form, pEC50 equals minus log to base ten of the concentration in mol/L.

# pEC50 measured on TDO2 (Homo sapiens, UniProt P48775) for item NS(=O)(=O)c1ccc2c(c1)CCC(C1c3ccccc3-c3cncn31)C2O (single isomer, unassigned) [Example 100g] = 7.24

# pEC50 measured on TDO2 (Homo sapiens, UniProt P48775) for item CC1(C)CCCCC1(O)C1c2ccccc2-c2cncn21 (single isomer, unassigned) [Example 164a] = 7.40

# pEC50 measured on TDO2 (Homo sapiens, UniProt P48775) for item OC1CC2(COC2)C1C1c2ccccc2-c2cncn21 (single isomer, unassigned) [Example 87h] = 4.96

# pEC50 measured on TDO2 (Homo sapiens, UniProt P48775) for item CC1(C)OC(C)(C)C(C2c3ccccc3-c3cncn32)C1O (single isomer, unassigned) [Example 84d] = 5.44

# pEC50 measured on TDO2 (Homo sapiens, UniProt P48775) for item OC1c2[nH]ncc2CCC1C1c2ccccc2-c2cncn21 (single isomer, unassigned) [Example 157a] = 6.43

# pEC50 measured on TDO2 (Homo sapiens, UniProt P48775) for item OC1c2[nH]ncc2CCC1C1c2ccccc2-c2cncn21 (single isomer, unassigned) [Example 157g] = 7.38

# pEC50 measured on TDO2 (Homo sapiens, UniProt P48775) for item NS(=O)(=O)c1ccc2c(c1)C(O)C(C1c3ccccc3-c3cncn31)CC2 (single isomer, unassigned) [Example 105g] = 5.04

# pEC50 measured on TDO2 (Homo sapiens, UniProt P48775) for item N[C@H]1COC[C@H]1[C@H]1c2ccccc2-c2cncn21 [Example 32b] = 4.96

# pEC50 measured on TDO2 (Homo sapiens, UniProt P48775) for item CN(C)C(=O)c1ccc2c(c1)CCC(C1c3ccccc3-c3cncn31)C2O (single isomer, unassigned) [Example 98e] = 4.66

# pEC50 measured on TDO2 (Homo sapiens, UniProt P48775) for item Cc1nc2c(o1)CCC(C1c3ccccc3-c3cncn31)C2O (single isomer, unassigned) [Example 168a] = 6.85

# pEC50 measured on TDO2 (Homo sapiens, UniProt P48775) for item O[C@@H]1CCOC[C@H]1[C@H]1c2ccc(F)cc2-c2cncn21 (single isomer, unassigned) [Example 34a] = 5.74

---

For each entry below, report its EC50 value.
Measured on: TDO2 (Homo sapiens)
Construct: decreased levels of NFK in SW48 cells (high TDO expressing cells)
Assay notes: TDO2 cell assay (NFK GreenScreen, SW48 cells)
Assay type: cell-based
Test parameters: SW48 cells (high TDO expressing), 200 uM tryptophan, 24 hours; Table 3; read-out: TDO2 Cell Fluor EC50

Notebook: NC(=O)C1CCC(O)(C2c3ccccc3-c3cncn32)CC1 (single isomer, unassigned) [Example 140a] , EC50 read as > 25 µM

Notebook: OC1(C2c3ccccc3-c3cncn32)CCCc2ccncc21 (single isomer, unassigned) [Example 141c] , EC50 read as > 25 µM

Notebook: OC1c2cnccc2CC1C1c2ccccc2-c2cncn21 (single isomer, unassigned) [Example 71aa] , EC50 read as > 25 µM

Notebook: CC(C)(C)OC(=O)N1CC2(CC(C3c4ccccc4-c4cncn43)C2O)C1 (single isomer, unassigned) [Example 41a] , EC50 read as > 25 µM

Notebook: OC1c2cc(CF)nn2CCC1C1c2ccccc2-c2cncn21 (single isomer, unassigned) [Example 95a] , EC50 read as > 25 µM

Notebook: OC1C(C2c3ccccc3-c3cncn32)CCC12CCOCC2 (single isomer, unassigned) [Example 68c] , EC50 read as > 25 µM

Notebook: O[C@@H]1CCOC[C@H]1[C@H]1c2ccc(F)cc2-c2cncn21 (single isomer, unassigned) [Example 34b] , EC50 read as > 25 µM

Notebook: O[C@@H]1[C@@H]([C@@H]2c3ccccc3-c3cncn32)CCCC1(F)F (single isomer, unassigned) [Example 106a] , EC50 read as > 25 µM

Notebook: Cc1cc2n(n1)CCC(C1c3ccccc3-c3cncn31)C2O (single isomer, unassigned) [Example 166a] , EC50 read as > 25 µM

Notebook: O[C@@H]1c2ncsc2CC[C@H]1[C@H]1c2ccccc2-c2cncn21 [Example 125b] , EC50 read as 0.067 µM

Notebook: OC(c1ccncc1)C1c2ccccc2-c2cncn21 (single isomer, unassigned) [Example 152a] , EC50 read as 14 µM

Notebook: OC1(C2c3ccccc3-c3cncn32)CC(CF)(CF)C1 (racemic) , EC50 read as 3.4 µM

Notebook: NS(=O)(=O)N1CCC2(CC1)CC(C1c3ccccc3-c3cncn31)C2O (single isomer, unassigned) [Example 181c] , EC50 read as > 25 µM

Notebook: O=c1cccc2n1CCC(C1c3ccccc3-c3cncn31)C2O (single isomer, unassigned) [Example 29d] , EC50 read as 5.7 µM

---

Measured on: IDO (Homo sapiens)
Construct: selective against A172+IFNg cells (high IDO expressing cells)
Sequence (P14902 whole entry): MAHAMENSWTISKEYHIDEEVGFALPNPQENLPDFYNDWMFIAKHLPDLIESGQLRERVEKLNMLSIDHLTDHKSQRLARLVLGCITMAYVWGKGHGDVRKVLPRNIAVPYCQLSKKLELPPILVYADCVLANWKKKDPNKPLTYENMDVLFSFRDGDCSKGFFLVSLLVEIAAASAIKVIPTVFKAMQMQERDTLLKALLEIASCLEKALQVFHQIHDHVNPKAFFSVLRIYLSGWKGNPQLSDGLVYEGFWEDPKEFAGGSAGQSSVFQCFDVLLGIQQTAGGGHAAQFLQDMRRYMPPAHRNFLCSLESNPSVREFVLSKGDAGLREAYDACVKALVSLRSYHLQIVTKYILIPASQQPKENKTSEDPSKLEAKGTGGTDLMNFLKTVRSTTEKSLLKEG
Assay notes: IDO cell assay (NFK GreenScreen, A172+IFNg cells)
Test parameters: A172 cells + 100 ng/ml IFNγ (high IDO expressing), 100 uM tryptophan, 24 hours; TDO selectivity table; read-out: IDO cell Fluor EC50
Description: Cells are counted on a Vi-Cell (Beckman Coulter). […] The final DMSO concentration is 0.5%. Compounds of the invention were tested for selectivity against TDO over IDO. The cell based assay described above was used to test for TDO and IDO activity.
Assay readout: EC50 (µM)
Kindly provide the numeric value in µM only, without the unit symbol.

Notebook: CCS(=O)(=O)N1CC[C@@H]([C@H]2c3ccccc3-c3cncn32)[C@H](O)C1 [Example 16a] , EC50 read as 1.2

Notebook: Cn1cc2c(n1)CCC(C1c3ccccc3-c3cncn31)C2O (single isomer, unassigned) [Example 130d] , EC50 read as 1.8

Notebook: NS(=O)(=O)c1ccc2c(c1)CCC(C1c3ccccc3-c3cncn31)C2O (single isomer, unassigned) [Example 100g] , EC50 read as 1.7
